assayed_system: HLA-A*02:06
test_method_notes: IEDB peptide-MHC binding, purified MHC/competitive/radioactivity; filed as Kd, often an IC50 or EC50 that approximates it; bounds were set here for any values at or beyond the usual limits of such assays
measurement_parameters: source organism: HIV-1 M:B_ARV2/SF2
parameter_measured: pKd
Scale: negative log10 of molar concentration, which is what pKd denotes.

Lookup: Look up and report measured pKd for this entry: `VLAEAMSQV`
Found: 7.88

* * *

assayed_system: HLA-B*27:03
test_method_notes: IEDB peptide-MHC binding, purified MHC/competitive/fluorescence; filed as Kd, often an IC50 or EC50 that approximates it; bounds were set here for any values at or beyond the usual limits of such assays
measurement_parameters: source organism: Burkholderia pseudomallei K96243
parameter_measured: Kd

Lookup: Name the recorded Kd of the item `DELWRGLLA` in your answer.
Found: ≥ 20 µM
